Test: mn = molality of the nth substance listed, in mol/kg
Settings: 318.15 K; 100 kPa; Liquid; Vibrating tube method; m1 = 0.02
readout: mass density (kg/m3)
I only need the number, in kg/m3, no unit after it.

COc1cc(-c2cc(-c3ccc(O)cc3)[nH]c(=O)c2C#N)ccc1O + C[S+](C)[O-]    1077.22

Reported mass density for COc1cc(-c2cc(-c3ccccc3)[nH]c(=O)c2C#N)ccc1O + C[S+](C)[O-] was 1076.69

mass density measured on COc1cc(-c2cc(-c3ccc(Cl)cc3)[nH]c(=O)c2C#N)ccc1O + C[S+](C)[O-] = 1077.19

Form: molecule = COc1cc(-c2cc(-c3ccccc3O)[nH]c(=O)c2C#N)ccc1O + C[S+](C)[O-] ; mass density = 1077.18

Reference for the values: the NIST ThermoML archive (doi:10.1021/acs.jced.5b00627)
